testedTarget: PaPhzS-FITC (Pseudomonas aeruginosa, UniProt Q9HWG9)
Construct: implied by pET28a and the HisTrap purification); FITC (chemical covalent label, not a peptide
Sequence (Q9HWG9 whole entry): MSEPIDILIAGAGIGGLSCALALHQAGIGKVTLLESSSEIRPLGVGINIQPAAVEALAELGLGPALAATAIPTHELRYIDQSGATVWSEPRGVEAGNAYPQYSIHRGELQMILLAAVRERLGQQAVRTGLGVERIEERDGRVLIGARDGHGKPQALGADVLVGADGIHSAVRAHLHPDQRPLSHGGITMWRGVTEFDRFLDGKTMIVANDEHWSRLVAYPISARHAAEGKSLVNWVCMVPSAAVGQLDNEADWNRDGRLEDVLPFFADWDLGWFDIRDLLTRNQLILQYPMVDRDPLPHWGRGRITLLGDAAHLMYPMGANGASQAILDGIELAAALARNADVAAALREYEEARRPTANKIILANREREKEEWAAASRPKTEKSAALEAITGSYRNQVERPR
experimentDescription: Affinity to covalently modified PaPhzS (FITC fluorescence)
Task for the reader: assign each of the following compounds its reported pKd.
Answers are plain numbers, as −log10 of the molar value.

Known pKd results, listed for orientation:
[
  {
    "chemSmiles": "O=C1NC(=O)C(=Cc2cc(Cl)cc(Br)c2O)S1",
    "testedTarget": "PaPhzS-FITC (Pseudomonas aeruginosa, UniProt Q9HWG9)",
    "pKd": 3.78
  },
  {
    "chemSmiles": "O=C1NC(=O)/C(=C/c2cc(Cl)ccc2O)S1",
    "testedTarget": "PaPhzS-FITC (Pseudomonas aeruginosa, UniProt Q9HWG9)",
    "pKd": 5.21
  },
  {
    "chemSmiles": "COCn1cc(/C=C2\\SC(=O)NC2=O)c2ccccc21",
    "testedTarget": "PaPhzS-FITC (Pseudomonas aeruginosa, UniProt Q9HWG9)",
    "pKd": 4.07
  }
]

Fill blank: measured pKd of the compound COc1ccc(/C=C2\SC(=O)NC2=O)c(Br)c1O is ____.
5.48
